These data points were gathered from paper PMC6680932.

# Test system: LoVo/DX (colon cancer doxorubicin-resistant)
# test summary: Antiproliferative activity in vitro, SRB assay
# Assay type: cell-based, human
# condition: Homo sapiens, LoVo/DX, 72 h exposure, read-out: IC50 ± SD LoVo/DX

| smiles code | IC50 [µM] |
| --- | --- |
| O=C1C[C@@H](c2ccc(O)c(O)c2)Oc2cc(O)cc(O)c21 | 99.2 |
| COc1ccc(-c2cc(=O)c3c(O)cc(O)cc3o2)cc1O | 13.4 |
| O=c1cc(-c2ccc(O)cc2)oc2cc(O)cc(O)c12 | 11.6 |
| COc1ccc([C@@H]2CC(=O)c3c(O)cc(O)cc3O2)cc1O | 77.2 |

====

Recorded IC50 values for a group of compounds are listed next.
# Tested on: MV-4-11 (biphenotypic B myelomonocytic leukemia)
# test summary: Antiproliferative activity in vitro, MTT assay
# Type: cell-based, human
# condition: Homo sapiens, MV4-11, 72 h exposure, read-out: IC50 ± SD MV-4-11
measured property: IC50 (µM)

| smiles code | uom | result number |
| --- | --- | --- |
| COc1ccc(-c2cc(=O)c3c(O)cc(O)cc3o2)cc1O | µM | 8.39 |
| O=C1C[C@@H](c2ccccc2)Oc2cc(O)cc(O)c21 | µM | 99.1 |
| COc1ccc([C@@H]2CC(=O)c3c(O)cc(O)cc3O2)cc1O | µM | 140 |
| O=c1cc(-c2ccccc2)oc2cc(O)cc(O)c12 | µM | 15.1 |
| O=c1cc(-c2ccc(O)cc2)oc2cc(O)cc(O)c12 | µM | 8.18 |
| O=c1cc(-c2ccc(O)c(O)c2)oc2cc(O)cc(O)c12 | µM | 8.73 |
| O=C1C[C@@H](c2ccc(O)cc2)Oc2cc(O)cc(O)c21 | µM | 146 |

====

# Test system: MCF7 (breast carcinoma)
# test summary: Antiproliferative activity in vitro, SRB assay
# Format: cell-based, human
# condition: Homo sapiens, MCF7; 72 h exposure, SRB; read-out: IC50 ± SD MCF7
Recorded IC50 values for a group of compounds are listed next.

| smiles code | IC50 / µM |
| --- | --- |
| O=c1cc(-c2ccc(O)cc2)oc2cc(O)cc(O)c12 | 22.5 |
| O=c1cc(-c2ccccc2)oc2cc(O)cc(O)c12 | 75 |
| COc1ccc(-c2cc(=O)c3c(O)cc(O)cc3o2)cc1O | 123 |
| O=C1C[C@@H](c2ccc(O)cc2)Oc2cc(O)cc(O)c21 | 215 |

====

# Tested on: DU 145 (prostate cancer)
# test summary: Antiproliferative activity in vitro, SRB assay
# Assay type: cell-based, human
# condition: Homo sapiens, DU-145, 72 h, read-out: IC50 ± SD DU 145
measured property: IC50 (µM)

| smiles code | tgt | result number |
| --- | --- | --- |
| O=C1C[C@@H](c2ccc(O)c(O)c2)Oc2cc(O)cc(O)c21 | DU 145 (prostate cancer) | 121 |

====

# Tested on: MCF7 (breast carcinoma)
# test summary: Antiproliferative activity in vitro, SRB assay
# Assay type: cell-based, human
# condition: 72 h exposure, SRB; read-out: IC50 ± SD MCF7

| compound | IC50, µM |
| --- | --- |
| N.N.[Cl][Pt][Cl] [Cisplatin, reference compound] | 7.5 |
